Every entry's value here was drawn from patent US20230295088A1.

- Tested on: GLUT4 translocation in C2C12 myoblast cell line stably expressing HiBiT-GLUT4 (HBG4)
- Protocol Description: HiBiT (NanoBit) luminescence GLUT4 translocation assay in HBG4 C2C12 cells
- Assay type: cell-based, mouse
- Stated Conditions: Mus musculus; HBG4 C2C12 cells, with insulin; read-out: potency (enhancement of insulin effect on GLUT4 translocation)
Parameter: EC50 (nM)
Give just the numeric value; nM need not be written.

Documented EC50 of O=C(Nc1ccc(Cl)c(Cl)c1)C12CC3CC(CC(C3)C1)C2 [Compound C59] : 2500
